target or test system: T1, human CD4 on the surface of SKW3 cells or human PBMCs (human, UniProt P01730 26-458)
T1 construct: whole, on cells; SKW3 CD4 knockout cells served as the negative cell line; also called hCD4; SKW3 WT
test description: FACS confirmation, supernatant on human PBMCs, anti-mouse Fc A647
readout: PBMCs, anti-mFc 647 CD4+ Percent Bound of Viable (%)
Express your answer in %, writing the number without its unit.

// below: answered binders
binder | test value
75110_12H17A (antibody, V domains shown, Tested here as non-clonal hybridoma supernatant from AlivaMab Mouse Kappa mice (detected with anti-mouse Fc and anti-human kappa)) VH: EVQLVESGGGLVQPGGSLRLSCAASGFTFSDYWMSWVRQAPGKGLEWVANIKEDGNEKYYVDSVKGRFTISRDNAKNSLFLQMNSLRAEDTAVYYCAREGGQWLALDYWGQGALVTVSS VL: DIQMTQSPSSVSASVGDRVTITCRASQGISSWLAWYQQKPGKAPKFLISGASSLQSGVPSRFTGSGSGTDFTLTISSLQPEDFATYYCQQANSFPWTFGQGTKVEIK | 29
75110_05B13A (antibody, V domains shown, Tested here as non-clonal hybridoma supernatant from AlivaMab Mouse Kappa mice (detected with anti-mouse Fc and anti-human kappa)) VH: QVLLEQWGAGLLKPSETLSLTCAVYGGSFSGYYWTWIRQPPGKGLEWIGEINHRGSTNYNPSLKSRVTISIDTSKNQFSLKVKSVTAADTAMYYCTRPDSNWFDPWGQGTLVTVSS VL: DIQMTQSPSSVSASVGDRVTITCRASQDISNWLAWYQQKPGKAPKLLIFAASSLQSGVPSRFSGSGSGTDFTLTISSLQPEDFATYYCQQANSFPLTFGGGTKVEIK | 27

Next:
INPUT: State the recorded PBMCs, anti-mFc 647 CD4+ Percent Bound of Viable for this entry: 75110_04P08A (antibody, V domains shown, Tested here as non-clonal hybridoma supernatant from AlivaMab Mouse Kappa mice (detected with anti-mouse Fc and anti-human kappa)) VH: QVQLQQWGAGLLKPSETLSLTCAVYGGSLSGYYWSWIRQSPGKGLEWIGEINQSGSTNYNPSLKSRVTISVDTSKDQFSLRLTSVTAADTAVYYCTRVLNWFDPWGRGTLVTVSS VL: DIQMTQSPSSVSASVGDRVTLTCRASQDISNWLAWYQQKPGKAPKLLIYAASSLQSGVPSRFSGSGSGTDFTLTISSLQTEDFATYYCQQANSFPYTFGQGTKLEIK
OUTPUT: 28

The measurements presented in this section are drawn from patent US20220112288A1.
